B1: library; numbered along this chain (parent)
chain: MAAAAAAAAEQQSSNGPVKKSMREKAVERRSVNKEHNSNFKAGYIPIDEDRLHKTGLRGRKGNLAICVIILLFILAVINLIITLVIWAVIRIGPNGCDSMEFHESGLLRFKQVSDMGVIHPLYKSTVGGRRNENLVITGNNQPIVFQQGTTKLSVENNKTSITSDIGMQFFDPRTQNILFSTDYETHEFHLPSGVKSLNVQKASTERITSNATSDLNIKVDGRAIVRGNEGVFIMGKTIEFHMGGNMELKAENSIILNGSVMVSTTRLPSSSSGDQLGSGDWVRYKLCMCADGTLFKVQVTSQNMGCQISDNPCGNTH

# Variants of: B1
# assay_procedure: SGCB cell-surface expression functional score (HA stain, bin4 vs bin1, normalised to synonymous) (log10 ratio); higher = more cell-surface SGCB (functional)
endpoint_label: SGCB cell-surface expression functional score (log10)
I'd appreciate a reply containing only the number, no unit.

D281A -0.2
V118K 0.64
S197C 0.14
V261G -0.18
S264E 0.53
I137R -1.41
T138H 0.22
E248H 0.87
S14F 0.19

Attention now turns to another entry.
The variant listed as I81D shows SGCB cell-surface expression functional score (log10) equal to 0.12
